assay: probe aNOTCH2 binding on compound microarray – biochemical, small-molecule microarray, 635/667 nm fluorescence, primary screen (AID 1121); conditions: higher = more signal;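 also: score merges feature fluorescence read at 667 nm with its signal to noise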
Would you mind labelling by composite z-score? At or over -0.07 is Condition met, under is Condition not met.

INSERT INTO measurements (molecule, assigned_label) VALUES
  ('Cc1ccc(S[C@]2(C(=O)NCC(C)C)CC(=O)N(Cc3cc(C(F)(F)F)cc(C(F)(F)F)c3)[C@@H]2c2ccc(CO)cc2)cc1', 'Condition met'),
  ('[N-]=[N+]=NCc1ccccc1[C@@H]1OC(c2ccc(OCCCO)cc2)=N[C@]1(CCS(=O)(=O)c1ccccc1)C(=O)N1CCCCC1', 'Condition not met'),
  ('COC(=O)C(CC#Cc1ccc2c(c1)[C@]1(C(=O)N2)[C@H](c2ccccc2OCCO)N2[C@H](c3ccccc3)[C@H](c3ccccc3)OC(=O)[C@H]2[C@@H]1C(N)=O)C(=O)OC', 'Condition met'),
  ('COC(=O)[C@@]1(Cc2ccc(OC)cc2)[C@H]2c3cc(C(=O)N4CCCC4)n(CCc4ccc(O)c(O)c4)c3C[C@H]2CN1C(=O)c1ccccc1', 'Condition met'),
  ('O=C1C2C=CC(C(O)c3cc(C(F)(F)F)cc(C(F)(F)F)c3)N(Nc3ccccc3)C2C(=O)N1c1ccccc1 (centres undefined)', 'Condition not met'),
  ('CC(C)(C)OC(=O)CC[C@@]1(C(=O)N2CCCCC2)N=C(c2ccc(OCCCO)cc2)O[C@@H]1c1ccccc1', 'Condition met'),
  ('[N-]=[N+]=Nc1ccccc1C[C@@]1(C(=O)N2CCCCC2)N=C(c2ccc(OCCCO)cc2)O[C@@H]1c1ccccc1N=[N+]=[N-]', 'Condition met'),
  ('CCOC(=O)C[C@H]1[C@H](OC(=O)c2ccc(C(=O)c3ccccc3)cc2)[C@@H](NC(=O)Cc2ccc(OC)cc2)c2cc(OCCCO)ccc2N1C(=O)c1ccc2ccccc2n1', 'Condition not met'),
  ('CC1CC/C=C\[C@H]2OC34C=CCN(c5ccc6ccccc6c5)C(=O)[C@H]3N(CCO)C(=O)[C@@H]4C2C(=O)O1 (some centres undefined)', 'Condition not met'),
  ('CC(C)CN1C(=O)[C@@]2(c3ccc([N+](=O)[O-])cc3)CC(=O)N(C3CCCCC3)[C@@H]2c2ccc(CO)cc21', 'Condition met'),
  ('O=C1[C@H]2C=C(Br)[C@H](C[C@@H]2OCCCCCCO)[C@@]12CO2', 'Condition met'),
  ('C=CCN(Cc1ccccc1)C(=O)C(c1cccs1)N(C(=O)/C=C\C(=O)O)c1ccc(CCOCCO)cc1 (centres undefined)', 'Condition not met'),
  ('C#CCN1[C@@H](Cc2ccc(O)cc2)C(=O)O[C@H](Cc2ccccc2)[C@@H]1/C=C/C1CC1', 'Condition not met'),
  ('O=C(NCc1ccccc1)[C@@H]1c2ccccc2C(=O)N(C2Cc3ccccc3C2)[C@H]1c1ccc(CO)cc1', 'Condition met');

Values were extracted from PubChem BioAssay.
